test system: HL-60; test: NCI tumour cell line growth inhibition, 48 h
Activity calls are given as the source filed them. Rule as the data show it: active = GI50 up to about 1.1 µM and inactive = higher.
Labels: active, inactive

>>> class_assignment("CC1(C)N=c2c(ncn2N)=C(C(N)=O)N1")
"inactive"
>>> class_assignment("C=C1C(=O)C[C@@]23CCC[C@@]12CC(O)C3 (stereo partly specified)")
"inactive"
>>> class_assignment("CC1OC(CC(=O)O)CC2=C1C(=O)c1c(O)cccc1C2=O (stereo unspecified)")
"active"
>>> class_assignment("O=NN(CCCl)C(=O)NC1CCSc2ccccc21 (stereo unspecified)")
"inactive"
>>> class_assignment("CC(=O)n1nc(-c2ccccc2)n(/N=C/c2ccc([N+](=O)[O-])o2)c1=O")
"inactive"
>>> class_assignment("CC(C)c1cc(C(F)(F)F)nc(NNc2nc(C(C)C)cc(C(F)(F)F)n2)n1")
"inactive"

---

test system: RXF 393; test: NCI tumour cell line growth inhibition, 48 h
Activity calls are given as the source filed them. Rule as the data show it: active = GI50 up to about 1.1 µM and inactive = higher.
Labels: active, inactive

>>> class_assignment("CC(C)NC(=O)OCc1c(COC(=O)NC(C)C)c(-c2cc[n+](COC(=O)Cc3ccccc3)cc2)n2c1CCC2")
"inactive"
>>> class_assignment("CCc1cc2c(cc1O)CC[C@@H]1[C@@H]2CC[C@]2(C)[C@@H](O)CC[C@@H]12")
"inactive"
>>> class_assignment("CC1(C)CC(=O)C2=C(C1)N(c1ccccc1)C1(O)C=CC(O)=C3C(=O)c4ccccc4C(=O)C321 (centres undefined)")
"inactive"
>>> class_assignment("COc1ccc(NC(=O)/C(=N/O)C(C)=O)cc1")
"inactive"
>>> class_assignment("O=C(NCC1Nc2ccncc2S(=O)(=O)N1)c1ccc(Br)cc1 (centres undefined)")
"inactive"
>>> class_assignment("Cc1cc(NC(=O)NC(=O)c2ccccc2NC(=O)CN(C)C)ccc1Oc1ncc(Br)cn1")
"inactive"
>>> class_assignment("CC12CC(C/C1=N/O)C(C)(C)C2 (centres undefined)")
"inactive"
>>> class_assignment("O=C(/C=C(\\O)c1cc(-c2ccccc2)n(-c2ccccc2)n1)c1ccccc1")
"inactive"
>>> class_assignment("CC1C[C@]2(C[C@@H](C)C(=O)O2)O[C@@H]2CC3(C)[C@@H]4CCC5C(C)(C)OC(=O)C[C@H]6OO[C@]4(CC[C@]3(C)C12)CC56O (some centres undefined)")
"inactive"
>>> class_assignment("CCCCCCCCCCCCCC[S+](C)C")
"inactive"
>>> class_assignment("Cc1cc(C)n(-c2nc(-n3nc(C)cc3C)nc(-n3nc(C)cc3C)n2)n1")
"inactive"
>>> class_assignment("CC(=O)N(C(C)=O)c1ncc(-n2nc(-c3ccccc3)cc2-c2ccccc2)c(-c2ccccc2)n1")
"inactive"
>>> class_assignment("CCCCN1C(=O)C[C@H]2[C@@H]3CCc4cc(OCCN5CCCC5)ccc4[C@H]3CC[C@]2(C)C1=O")
"inactive"
>>> class_assignment("COc1cc(OCCN(C)C)c2[nH]c(C(=O)N3CC(CCl)c4c3cc(N)c3ccccc43)cc2c1 (centres undefined)")
"active"
>>> class_assignment("CO[C@@H]1[C@@H](OC2OC(C)C(OC3CC(C)(O)C(OC(=O)CC(C)C)C(C)O3)C(N(C)C)C2O)[C@@H](CC=O)C[C@@H](C)C(=O)/C=C/C2O[C@H]2C[C@@H](C)OC(=O)C[C@H]1OC(C)=O (some centres undefined)")
"inactive"
>>> class_assignment("Cc1ccc2c3c4c(ccc13)C(C)(C)OC4=C(C(C)C)C2=O")
"inactive"
>>> class_assignment("COc1ccc2c(c1O)C13CCN(C)C(C2)C1CCC1(C3)OCCO1 (centres undefined)")
"inactive"
>>> class_assignment("COc1ccc(Oc2cccc(/C=C3/C(=O)Nc4ccccc43)c2)cc1")
"inactive"
>>> class_assignment("O=C(NNC(=O)c1c(Cl)c(Cl)c(Cl)c(Cl)c1-c1nc2ccccc2[nH]1)c1ccc(Cl)cc1")
"inactive"
>>> class_assignment("CCOC(=O)[C@H]1Nc2c(cccc2[N+](=O)[O-])C2c3ccccc3CC21 (some centres undefined)")
"inactive"
>>> class_assignment("O=C(CCC(=O)Nc1ccccc1C(F)(F)F)N/N=C1\\C(=N\\NC(=O)CCC(=O)Nc2ccccc2C(F)(F)F)C(c2ccc3c(c2)OCO3)Oc2ccccc21 (centres undefined)")
"inactive"
>>> class_assignment("Cc1cc(C)nc(SCCc2cccc[n+]2C)n1")
"inactive"
>>> class_assignment("COc1ccc(C(=O)C(Br)C(Br)C(=O)O)cc1 (centres undefined)")
"inactive"
>>> class_assignment("COC(=O)CC1(CNC(=O)OCc2ccccc2)OCCO1")
"inactive"
>>> class_assignment("Clc1ccc(C2SCc3nc4ccccc4n32)cc1Cl (centres undefined)")
"inactive"
>>> class_assignment("C[N+](C)(Cc1ccc(NC(=O)CCCC(=O)ON2C(=O)CCC2=O)cc1)c1ccccc1")
"active"
>>> class_assignment("CCN(CC)c1ccc2c(c1)Oc1ccc(N(C(C)=O)c3ccccc3)cc1C21OC(=O)c2ccccc21 (centres undefined)")
"inactive"
>>> class_assignment("CCOP(=O)(C/C(=N/NC(C)(C)C)C(=O)Nc1nc2ccc(C)cc2s1)OCC")
"inactive"
>>> class_assignment("Cc1cccc2c(N)c3cccc(C(=O)NCC[N+](C)(C)Cc4sccc4[N+](=O)[O-])c3nc12")
"inactive"
>>> class_assignment("CC1CC/C(=C\\c2ccc(F)cc2)C2=C1C(c1ccc(F)cc1)N1C(=O)CSC1=N2 (centres undefined)")
"inactive"
>>> class_assignment("CC(C)(CN1C(=O)C(Cl)=C(Cl)C1=O)CN1C(=O)C(Cl)=C(Cl)C1=O")
"inactive"
>>> class_assignment("CCOC(CNc1nn2c(C)nnc2s1)OCC")
"inactive"
>>> class_assignment("c1ccc2c(c1)cc1n2CC2CN=NC12 (centres undefined)")
"inactive"
>>> class_assignment("CC(CN1NC12CCCC2)N1NC12CCCC2 (centres undefined)")
"inactive"
>>> class_assignment("COc1ccc2[nH]c(C(=O)N3CC(CCl)c4ccc(N)cc43)cc2c1 (centres undefined)")
"active"
>>> class_assignment("COC1=CC(=O)c2c(c(-c3csc(C)n3)cn2C)C1=O")
"inactive"
>>> class_assignment("O=C1CCC2(CCC(=O)NC2=O)C(=O)N1")
"inactive"
>>> class_assignment("Cc1csc2nc(-c3ccc([N+](=O)[O-])cc3)c(/C=N/N=C(N)N)n12")
"inactive"
>>> class_assignment("C=C1C(=O)OC2C1C(OC(=O)/C(C)=C\\C)CC1(CO1)C1C(O)C=C(C)C21O (centres undefined)")
"inactive"
